Assay: Solubility at pH 7.4
Assay type: physicochemical
Conditions: buffer
METRIC_NAME: solubility (µg/mL)

P: c1ccc(-n2cnc3cc(-c4ccc(OCCN5CCCCC5)cc4)cnc32)cc1
Q: O=c1cc(-c2ccc3c(c2)ncn3-c2ccccc2)ccn1CCCN1CCCCC1
Input: // task: argmin of solubility over [ P , Q ] Choose, then provide that item's label.
Output: P

* * *

Test: Oral bioavailability (F%) of compound was determined as average of four rats at each dose of 5 mg/kg intravenous and 16 mg/kg peroral administration
Assay type: ADME, organism-based
Details: rat, in vivo
METRIC_NAME: bioavailability (%)
I only need the number, in %, no unit after it.

The value of bioavailability measured for the compound c1ccc(-n2cnc3cc(-c4ccc(OCCN5CCCCC5)cc4)ccc32)cc1 turned out to be 76
